The reported measurements were obtained from paper PMC9005681.

Form field: Mean % (one value per entry).
target: cloned human or rodent CNS receptors, channels, and transporters (PDSP panel) (Homo sapiens); construct: expressed in transfected cells; assay: PDSP GPCR panel primary binding assays at 10 μM; conditions: D1; primary assay, mean inhibition
Could you give the number and then its unit, please?

Ask: Consider the compound shown here: O=C(NC1CC1)C(=O)C(Cc1ccccc1)NC(=O)[C@H]1CCC(=O)N1Cc1ccccc1 (stereo partly shown) [UNC10302676A, ABT-957 (Alicapistat)] What is its recorded Mean %?
Result: 0%

----------
Target: cloned human or rodent CNS receptors, channels, and transporters (PDSP panel) (Homo sapiens)
Construct: expressed in transfected cells
Assay: PDSP GPCR panel primary binding assays at 10 μM
Conditions: 5-HT2B; primary assay, replicate 4
Procedure: GPCR panel: Screening against the receptors within the PDSP panel offers an assessment of off-target pharmacological activity at cloned human or rodent CNS receptors, channels, and transporters that could confound CNS-related phenotypes. A total of 46–47 primary binding assays were run in quadruplicate on these compounds at 10 μM, with follow-up secondary binding assays in 11-point dose-response in triplicate for select compounds versus select receptors. […]
reported-property: Inhibition 4 (%)
Just the number please, in %, no unit attached.

Ask: What value of Inhibition 4 has been reported for the following compound? CNc1nc(C)nc(N[C@H]2CCC[C@@H](C(=O)NCc3ccc(C#N)cc3C(F)(F)F)C2)n1 [UNC10302679A, GSK2256294A]
Result: -37.81

Ask: Reported Inhibition 4 for O=C(NC1CC1)C(=O)C(Cc1ccccc1)NC(=O)[C@H]1CCC(=O)N1Cc1ccccc1 (stereo partly shown) [UNC10302676A, ABT-957 (Alicapistat)] : what is it?
Result: -35.29

Ask: Look up Inhibition 4: CCC(=O)N1CCC(NC(=O)Nc2ccc(OC(F)(F)F)cc2)CC1 [UNC10302681A, TPPU]
Result: 39.38

Ask: Looking for the measured Inhibition 4 of CC(=O)N1CCC(NC(=O)NC23CC4CC(CC(C4)C2)C3)CC1 [UNC10302683A, AR9281] , can you help?
Result: -29.42
